# System: HOP-18 NSCLC
# Measurement Description: NCI tumour cell line growth inhibition, 48 h
Below, each of the molecules is paired with its reported TGI value.

Entry O=C(CCN1CCN(c2cccc(Cl)c2)CC1)N1CCc2c([nH]c3ccccc23)C1c1cccnc1 (stereo not drawn) needs its TGI filled in; supply it. 32.5 µM

Tell me its TGI given Cc1cc2c(cc1C)NC(=O)C(NC(=O)/C=C/c1ccccc1)C=N2 (stereo not drawn) as the entry. > 100 µM

Check the records and state TGI for COc1ccc(OCC(=O)O)c2c1CCC(C(C)C)C2=O (stereo not drawn) > 100 µM

---

# Tested on: UACC-257 melanoma
# Measurement Description: NCI tumour cell line growth inhibition, 48 h
Entries annotated with measured TGI
# value in µM; strip the unit string

COc1ccc(CN2C(=O)/C(=C\c3cc(OC)c(OC)c(OC)c3)c3cc(OC)ccc32)cc1 4.94
CC[C@@H]1C[C@@H]2CN3CCc4c([nH]c5ccc(OC)cc45)C(COC(=O)c4ccc(OC)c(OC)c4)(C2)C13 37.8

The record that follows has no TGI shown yet.
Annotate the compound S=c1[nH]nc(COc2ccc3c(c2)CCCC3)n1/N=C/c1ccc(Cl)cc1 with its measured TGI. 48.1
